- Test target: Nav1.5 channel currents (INa, ILATE) in M3q iPS-CMs (Homo sapiens, UniProt Q14524)
- Construct: host or cells: human iCell^2 iPS cardiomyocytes (transfected with M3q DREADD in A5; endogenous AT1 receptor in A7)
- Sequence (Q14524 whole entry): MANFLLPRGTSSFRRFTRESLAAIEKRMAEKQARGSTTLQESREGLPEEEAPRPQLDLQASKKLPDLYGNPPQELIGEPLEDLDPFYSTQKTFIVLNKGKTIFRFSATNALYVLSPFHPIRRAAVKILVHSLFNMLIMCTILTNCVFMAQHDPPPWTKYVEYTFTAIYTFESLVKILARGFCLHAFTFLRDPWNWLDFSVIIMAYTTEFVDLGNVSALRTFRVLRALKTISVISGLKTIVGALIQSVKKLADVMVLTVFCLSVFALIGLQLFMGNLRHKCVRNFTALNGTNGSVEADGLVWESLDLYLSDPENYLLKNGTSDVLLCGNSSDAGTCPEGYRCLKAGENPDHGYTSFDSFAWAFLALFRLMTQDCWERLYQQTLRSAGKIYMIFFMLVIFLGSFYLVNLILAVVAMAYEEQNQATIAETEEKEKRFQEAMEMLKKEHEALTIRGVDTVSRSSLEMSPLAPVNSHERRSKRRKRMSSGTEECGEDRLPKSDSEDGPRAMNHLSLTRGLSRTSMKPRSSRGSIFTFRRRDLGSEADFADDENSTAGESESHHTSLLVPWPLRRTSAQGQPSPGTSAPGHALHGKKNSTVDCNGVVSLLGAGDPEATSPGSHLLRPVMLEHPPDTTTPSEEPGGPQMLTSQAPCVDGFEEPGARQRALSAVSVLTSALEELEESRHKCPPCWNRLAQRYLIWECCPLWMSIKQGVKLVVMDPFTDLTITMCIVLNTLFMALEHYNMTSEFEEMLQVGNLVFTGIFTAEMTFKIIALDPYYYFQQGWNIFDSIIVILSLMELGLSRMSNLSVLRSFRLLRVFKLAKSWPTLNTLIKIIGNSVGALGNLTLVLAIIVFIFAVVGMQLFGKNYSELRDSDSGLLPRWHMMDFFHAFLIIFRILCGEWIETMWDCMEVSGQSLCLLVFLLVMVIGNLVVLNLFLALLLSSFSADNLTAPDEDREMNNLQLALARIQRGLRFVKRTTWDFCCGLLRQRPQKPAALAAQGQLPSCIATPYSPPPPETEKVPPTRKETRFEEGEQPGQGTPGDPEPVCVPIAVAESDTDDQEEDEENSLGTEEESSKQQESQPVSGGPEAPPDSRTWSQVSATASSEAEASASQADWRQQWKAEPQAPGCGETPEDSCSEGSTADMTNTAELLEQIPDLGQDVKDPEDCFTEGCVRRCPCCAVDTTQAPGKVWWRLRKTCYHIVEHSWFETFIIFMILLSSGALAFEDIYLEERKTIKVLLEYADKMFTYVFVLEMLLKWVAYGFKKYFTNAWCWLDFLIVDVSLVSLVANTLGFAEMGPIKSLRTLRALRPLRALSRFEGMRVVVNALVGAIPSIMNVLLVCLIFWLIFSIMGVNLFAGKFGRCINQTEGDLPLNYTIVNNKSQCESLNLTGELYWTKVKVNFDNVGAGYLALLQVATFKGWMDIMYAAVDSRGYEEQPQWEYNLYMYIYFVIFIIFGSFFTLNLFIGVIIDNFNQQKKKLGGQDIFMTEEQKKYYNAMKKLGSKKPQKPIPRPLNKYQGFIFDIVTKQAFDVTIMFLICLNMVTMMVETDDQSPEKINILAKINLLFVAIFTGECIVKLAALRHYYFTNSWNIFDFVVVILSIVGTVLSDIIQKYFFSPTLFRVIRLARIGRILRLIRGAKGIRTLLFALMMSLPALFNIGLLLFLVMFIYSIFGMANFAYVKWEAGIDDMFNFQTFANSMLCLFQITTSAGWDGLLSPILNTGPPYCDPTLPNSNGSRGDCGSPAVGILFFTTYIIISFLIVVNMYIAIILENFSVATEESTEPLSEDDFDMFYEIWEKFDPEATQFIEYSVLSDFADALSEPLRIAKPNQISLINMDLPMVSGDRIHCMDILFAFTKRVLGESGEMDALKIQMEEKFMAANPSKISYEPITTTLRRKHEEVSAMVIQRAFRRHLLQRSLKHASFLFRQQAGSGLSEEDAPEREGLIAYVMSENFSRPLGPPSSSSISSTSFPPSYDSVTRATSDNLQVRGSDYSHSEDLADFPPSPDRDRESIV
- Assay details: Whole-cell patch-clamp of INa and ILATE in M3q-DREADD iPS-CMs activated with CNO
- Assay type: cell-based
- Experimental context: 100 nM CNO; 200 μM diC8-PIP2 in pipette
Property: effect on CNO-evoked increase in ILATE

In [3]: df
Out[3]:
                                smiles_repr   result_value
0  CCCCCCCC(=O)OC[C@H](COP(=O)(O)O[C@@H]1[C@H](O)[C@H](O)[C@@H](OP(=O)(O)O)[C@H](OP(=O)(O)O)[C@H]1O)OC(=O)CCCCCCC      precluded
1  O=C(O)CN(CC(=O)O)c1ccccc1OCCOc1ccccc1N(CC(=O)O)CC(=O)O  not sensitive
2  COc1ccc2c(c1)CC[C@@H]1[C@@H]2CC[C@]2(C)[C@@H](NCCCCCCN3C(=O)C=CC3=O)CC[C@@H]12      precluded
3  CN[C@@H]1C[C@H]2O[C@@](C)([C@@H]1OC)n1c3ccccc3c3c4c(c5c6ccccc6n2c5c31)C(=O)NC4  not sensitive

----------
- Test target: GFP-PHPLCδ (PIP2 biosensor) (Homo sapiens)
- Construct: the pleckstrin homology domain of phospholipase C delta (GFP-PHPLCδ), a PIP2 biosensor
- Sequence (P51178 21-130 limits assumed): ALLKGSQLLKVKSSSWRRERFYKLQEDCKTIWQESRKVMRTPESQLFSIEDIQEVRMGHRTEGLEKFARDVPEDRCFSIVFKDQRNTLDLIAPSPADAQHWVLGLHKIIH
- Assay details: MST binding of diC8-PIP2 to GFP-tagged PHPLCδ1 (positive control)
Property: Kd (µM)
Answers are plain numbers, in µM.

Short answer for CCCCCCCC(=O)OC[C@H](COP(=O)(O)O[C@@H]1[C@H](O)[C@H](O)[C@@H](OP(=O)(O)O)[C@H](OP(=O)(O)O)[C@H]1O)OC(=O)CCCCCCC [diC8-PIP2] : Kd was 0.13

----------
- Test target: Nav1.5 WT (Homo sapiens)
- Construct: unpurified lysate supernatant used
- Assay details: Microscale thermophoresis (MST) binding of diC8-PIP2 to GFP-tagged wild type Nav1.5 in cell lysate
- Experimental: The method utilizes cell lysates obtained from transfected/infected cells that are lysed and incubated with varying concentrations of a water-soluble analogue of PIP2 commercially available as diC8-PI(4,5)P2, in a 384 well plate. Other phosphoinositides such as diC8PI(4)P of diC8PI(5)P can also be utilized. […] Protein that is interacting with the lipid migrates differently through this thermal gradient and its movement is evaluated by the fluorescence of the GFP/TFP tag on the protein. […]
Property: pKd
Answers are plain numbers, as −log10 of the molar value.

Short answer for CCCCCCCC(=O)OC[C@H](COP(=O)(O)O[C@@H]1[C@H](O)[C@H](O)[C@@H](OP(=O)(O)O)[C@H](OP(=O)(O)O)[C@H]1O)OC(=O)CCCCCCC [diC8-PIP2] : pKd was 7.35

----------
- Test target: free GFP (Aequorea victoria)
- Assay details: MST binding of diC8-PIP2 to free GFP (negative control)
pKd: −log10 of the molar value.
Property: pKd

Short answer for CCCCCCCC(=O)OC[C@H](COP(=O)(O)O[C@@H]1[C@H](O)[C@H](O)[C@@H](OP(=O)(O)O)[C@H](OP(=O)(O)O)[C@H]1O)OC(=O)CCCCCCC [diC8-PIP2] : pKd was < 3.10

The origin of these recorded values is patent US20240358727A1.
